# solubility listing for each entry below
assay summary: Aqueous solubility
Format: physicochemical
condition set: aqueous medium (not further specified)
measured metric: solubility (µM)

• Nc1cccc2c1CN(C1CCC(=O)NC1=O)C2=O (centres unmarked) [1b, lenalidomide] = 111
• Nc1cccc2c1C(=O)N(C1CCC(=O)NC1=O)C2=O (centres unmarked) [1c, pomalidomide] = 84.6

====

The following compounds are shown together with reported Papp values.
assay summary: Caco-2 cell permeability
Assay type: in vitro ADME, human
condition set: human, Caco-2
measured metric: Papp

* Nc1cccc2c1C(=O)N(C1CCC(=O)NC1=O)C2=O (stereo not drawn) [1c, pomalidomide] | 36 ×10⁻⁶ cm/s
* Nc1cccc2c1CN(C1CCC(=O)NC1=O)C2=O (stereo not drawn) [1b, lenalidomide] | 4 ×10⁻⁶ cm/s
* O=C1CCC(N2C(=O)c3ccccc3C2=O)C(=O)N1 (stereo not drawn) [1a, thalidomide] | 34.9 ×10⁻⁶ cm/s

====

Test system: CaCo2 human colon adenocarcinoma cell line
assay summary: Caco-2 cell permeability
Type: in vitro ADME
Attribute: CaCo2 Papp
measured metric: CaCo2 Papp

* O=C1CCC(c2ccccc2)C(=O)N1 (stereo not shown) [2a, phenyl glutarimide] | 21.55 ± 6.54 ×10⁻⁶ cm/s
* COc1ccc(C2CCC(=O)NC2=O)cc1 (stereo not shown) [2b] | 81.8 ± 25.14 ×10⁻⁶ cm/s
* Cc1sc2c(c1C)C(c1ccc(Cl)cc1)=N[C@@H](CC(=O)NCCCCNC(=O)COc1cccc3c1C(=O)N(C1CCC(=O)NC1=O)C3=O)c1nnc(C)n1-2 (stereo partly shown) [4a] | 1.16 ± 0.47 ×10⁻⁶ cm/s
* Nc1ccc(C2CCC(=O)NC2=O)cc1 (stereo not shown) [2c] | 15.72 ± 0.94 ×10⁻⁶ cm/s

====

system under test: UniProtKB Q96SW2
Sequence (Q96SW2 whole entry, species assumed): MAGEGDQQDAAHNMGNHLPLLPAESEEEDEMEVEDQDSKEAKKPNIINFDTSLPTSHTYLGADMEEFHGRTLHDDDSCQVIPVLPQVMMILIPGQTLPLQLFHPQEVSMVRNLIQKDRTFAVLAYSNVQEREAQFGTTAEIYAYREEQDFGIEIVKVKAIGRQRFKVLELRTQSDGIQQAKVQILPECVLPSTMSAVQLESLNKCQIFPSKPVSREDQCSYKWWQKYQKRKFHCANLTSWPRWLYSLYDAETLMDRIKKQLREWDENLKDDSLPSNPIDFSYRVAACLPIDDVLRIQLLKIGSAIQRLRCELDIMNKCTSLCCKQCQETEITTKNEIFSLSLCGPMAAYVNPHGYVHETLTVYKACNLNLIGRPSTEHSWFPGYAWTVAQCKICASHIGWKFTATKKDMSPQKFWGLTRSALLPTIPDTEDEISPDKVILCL
measured metric: IC50 (µM)

* COc1ccc([C@H]2CCC(=O)NC2=O)cc1 [(R)-2b] | 1.41
* Nc1ccc(C2CCC(=O)NC2=O)cc1 (stereo not drawn) [2c] | 0.123

====

The reader will find reported t1/2 MV4–11 cell media values listed item by item below.
assay summary: Chemical stability in MV4–11 cell culture media
condition set: 37°C, pH 7.4, LCMS over 24 hours
measured metric: t1/2 MV4–11 cell media

• Nc1ccc(C2CCC(=O)NC2=O)cc1 (stereo not shown) [2c] = >24 h
• Cc1sc2c(c1C)C(c1ccc(Cl)cc1)=N[C@@H](CC(=O)NCCCCNC(=O)COc1cccc3c1C(=O)N(C1CCC(=O)NC1=O)C3=O)c1nnc(C)n1-2 (stereo partly shown) [4a] = 4.2 ± 0.8 h
• COc1ccc(C2CCC(=O)NC2=O)cc1 (stereo not shown) [2b] = >24 h
• O=C1CCC(c2ccccc2)C(=O)N1 (stereo not shown) [2a, phenyl glutarimide] = >24 h

====

assay summary: Stability in phosphate-buffered saline
Type: physicochemical
measured metric: t1/2 PBS

• Cc1sc2c(c1C)C(c1ccc(Cl)cc1)=N[C@@H](CC(=O)NCCCCNC(=O)COc1cccc3c1C(=O)N(C1CCC(=O)NC1=O)C3=O)c1nnc(C)n1-2 (stereo partly shown) [4a] = 12.3 ± 0.6 h
• Nc1ccc(C2CCC(=O)NC2=O)cc1 (stereo not shown) [2c] = >48 h
• O=C1CCC(c2ccccc2)C(=O)N1 (stereo not shown) [2a, phenyl glutarimide] = >48 h
• COc1ccc(C2CCC(=O)NC2=O)cc1 (stereo not shown) [2b] = >48 h

====

assay summary: Stability in phosphate-buffered saline
Type: physicochemical
measured metric: half-life (h)

- Nc1cccc2c1C(=O)N(C1CCC(=O)NC1=O)C2=O (stereo not drawn) [1c, pomalidomide]: 32.5
- O=C1CCC(N2C(=O)c3ccccc3C2=O)C(=O)N1 (stereo not drawn) [1a, thalidomide]: 5.4
- Nc1cccc2c1CN(C1CCC(=O)NC1=O)C2=O (stereo not drawn) [1b, lenalidomide]: 33.6

====

Entries and their Sol. (aqueous solubility) values follow.
assay summary: Aqueous solubility
Format: physicochemical
measured metric: Sol. (aqueous solubility) (µM)

- Cc1sc2c(c1C)C(c1ccc(Cl)cc1)=N[C@@H](CC(=O)NCCCCNC(=O)COc1cccc3c1C(=O)N(C1CCC(=O)NC1=O)C3=O)c1nnc(C)n1-2 (stereo partly shown) [4a]: 53.5
- Nc1ccc(C2CCC(=O)NC2=O)cc1 (stereo not shown) [2c]: 148.5
- COc1ccc(C2CCC(=O)NC2=O)cc1 (stereo not shown) [2b]: 89.0
- O=C1CCC(c2ccccc2)C(=O)N1 (stereo not shown) [2a, phenyl glutarimide]: 76.2

====

assay summary: Chemical stability in MV4–11 cell culture media
condition set: MV4-11 cell culture media, pH 7.4
measured metric: half-life (h)

- Nc1cccc2c1CN(C1CCC(=O)NC1=O)C2=O (stereo not drawn) [1b, lenalidomide]: 11.7
- O=C1CCC(N2C(=O)c3ccccc3C2=O)C(=O)N1 (stereo not drawn) [1a, thalidomide]: 3.3
- Nc1cccc2c1C(=O)N(C1CCC(=O)NC1=O)C2=O (stereo not drawn) [1c, pomalidomide]: 12.2
